# T/C annotations
Tested on: P388 leukemia ip, CD2F1 mice, survival T/C
test: NCI In Vivo Anticancer Drug Screen. Data for tumor model P388 Leukemia (intraperitoneal) in CD2F1 (CDF1) mice
condition_context: endpoint: median survival time; dose: 100.0 mg/kg/injection; schedule: Q04DX003 (ip); vehicle: Klucel (hydroxypropylcellulose) (HPC); higher = longer survival
Inconclusive results and toxic doses are left out.
value_kind: T/C

[[record]]
molecule = "CC(C)(C)c1ccc(SS(=O)(=O)c2ccc(C(C)(C)C)cc2)cc1"
observed_measurement = "97 % of control"

[[record]]
molecule = "CN1c2ccccc2Sc2cc(N3c4ccccc4Sc4ccc(C(F)(F)F)cc43)c(C(F)(F)F)cc21"
observed_measurement = "101 % of control"

[[record]]
molecule = "COc1cc2c(cc1OC)C1CC(=O)C(C3(O)C(=O)Nc4ccccc43)CN1CC2 (stereo not drawn)"
observed_measurement = "99 % of control"

